Target: human muscarinic M4 receptor (Homo sapiens)
Construct: expressed in transfected cells
Sequence (P08173 whole entry): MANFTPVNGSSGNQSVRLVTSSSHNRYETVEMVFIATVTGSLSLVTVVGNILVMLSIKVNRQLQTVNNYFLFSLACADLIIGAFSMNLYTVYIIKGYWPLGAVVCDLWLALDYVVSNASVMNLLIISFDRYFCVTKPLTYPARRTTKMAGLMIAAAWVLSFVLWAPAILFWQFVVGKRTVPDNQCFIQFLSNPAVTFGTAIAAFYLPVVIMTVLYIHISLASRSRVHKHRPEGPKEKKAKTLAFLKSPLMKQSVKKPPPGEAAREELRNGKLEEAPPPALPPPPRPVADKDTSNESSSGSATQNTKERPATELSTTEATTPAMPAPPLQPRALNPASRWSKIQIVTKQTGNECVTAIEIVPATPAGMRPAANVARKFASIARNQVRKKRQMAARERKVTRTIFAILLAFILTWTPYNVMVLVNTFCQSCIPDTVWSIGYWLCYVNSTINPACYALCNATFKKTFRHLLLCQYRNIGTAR
Test: Alphascreen Surefire phospho-ERK1/2 functional assay, M4
Type: cell-based
Conditions: CHO, read-out: % Emax cf. ACh, M4, CHO cells stably expressing human M4; relative to ACh
MEASURED ATTRIBUTE: Emax (%)
Write the value in % as a bare number.

- MOLECULE: "CCOC(=O)N1CCC2(CC(N3CCC(c4nc(Cl)c[nH]4)CC3)C2)C1 (single isomer, unassigned) [1-2 Isomer 2]"
  Emax / %: 100
- MOLECULE: "CCOC(=O)N1CCC2(CC(N3CCC(c4cc(C)cnc4OC)CC3)C2)C1 (single isomer, unassigned) [3-12 Isomer 2]"
  Emax / %: 110
- MOLECULE: "CCOC(=O)N1CCC2(CC(N3CCC(c4nc(C#N)c[nH]4)CC3)C2)C1 (single isomer, unassigned) [1-4 Isomer 2]"
  Emax / %: 67

Read the next record carefully.
Given the molecule CCOC(=O)N1CCC2(CC(N3CCC(N4CCOCC4)CC3)C2)C1 (single isomer, unassigned) [4-11 Isomer 2] and test system human muscarinic M4 receptor (Homo sapiens), the measured Emax is 55
